molecular target: FGFR1 (UniProt P11362); assay: phosphorylation enrichment, bacterial display (enrichment ratio); higher = better substrate or ligand; peptides without Tyr show the background
Sequence (P11362 whole entry, looked up): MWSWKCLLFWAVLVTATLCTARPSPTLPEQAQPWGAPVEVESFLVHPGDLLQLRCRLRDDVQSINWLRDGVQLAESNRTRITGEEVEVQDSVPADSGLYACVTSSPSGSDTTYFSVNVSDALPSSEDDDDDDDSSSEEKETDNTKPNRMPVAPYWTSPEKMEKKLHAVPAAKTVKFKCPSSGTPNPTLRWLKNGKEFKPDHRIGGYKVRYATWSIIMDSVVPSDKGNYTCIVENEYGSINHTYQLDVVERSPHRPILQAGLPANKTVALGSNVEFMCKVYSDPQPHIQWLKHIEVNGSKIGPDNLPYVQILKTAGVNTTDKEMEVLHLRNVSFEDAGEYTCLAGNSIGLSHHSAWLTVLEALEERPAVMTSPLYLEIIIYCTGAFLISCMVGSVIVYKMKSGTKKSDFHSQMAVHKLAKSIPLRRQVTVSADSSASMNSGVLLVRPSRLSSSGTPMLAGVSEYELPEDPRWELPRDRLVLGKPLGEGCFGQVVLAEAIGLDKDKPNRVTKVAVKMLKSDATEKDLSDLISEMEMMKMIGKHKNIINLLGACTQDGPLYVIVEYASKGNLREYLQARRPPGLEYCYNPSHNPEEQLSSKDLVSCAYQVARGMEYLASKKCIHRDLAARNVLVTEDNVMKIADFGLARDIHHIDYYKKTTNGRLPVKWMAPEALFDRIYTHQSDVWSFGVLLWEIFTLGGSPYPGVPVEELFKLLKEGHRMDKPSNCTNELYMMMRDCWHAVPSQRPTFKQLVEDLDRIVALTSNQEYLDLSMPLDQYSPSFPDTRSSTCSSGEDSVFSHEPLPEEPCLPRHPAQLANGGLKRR
quantity: phosphorylation enrichment

sequence_code="LSPPVYLTNEW [NRK_Y885_I880L]" assay_target="FGFR1 (UniProt P11362)" assay_value=0.702
sequence_code="DAPVVYLGSFG [PRAG1_Y132_R137G]" assay_target="FGFR1 (UniProt P11362)" assay_value=0.491
sequence_code="MCDSHYLESRS [CLK1_Y56]" assay_target="FGFR1 (UniProt P11362)" assay_value=0.509
sequence_code="QAKRKYQEASK [FES_Y156]" assay_target="FGFR1 (UniProt P11362)" assay_value=0.495
sequence_code="SVVVPYERPEV [TP53_Y220_P222R]" assay_target="FGFR1 (UniProt P11362)" assay_value=0.495
sequence_code="TQTPPYVKKHR [LARP1B_Y457_P462R]" assay_target="FGFR1 (UniProt P11362)" assay_value=0.683

====

biological target: Fyn (UniProt P06241); experiment: phosphorylation enrichment, bacterial display (enrichment ratio); higher = better substrate or ligand; peptides without Tyr show the background
Sequence (P06241 whole entry, looked up): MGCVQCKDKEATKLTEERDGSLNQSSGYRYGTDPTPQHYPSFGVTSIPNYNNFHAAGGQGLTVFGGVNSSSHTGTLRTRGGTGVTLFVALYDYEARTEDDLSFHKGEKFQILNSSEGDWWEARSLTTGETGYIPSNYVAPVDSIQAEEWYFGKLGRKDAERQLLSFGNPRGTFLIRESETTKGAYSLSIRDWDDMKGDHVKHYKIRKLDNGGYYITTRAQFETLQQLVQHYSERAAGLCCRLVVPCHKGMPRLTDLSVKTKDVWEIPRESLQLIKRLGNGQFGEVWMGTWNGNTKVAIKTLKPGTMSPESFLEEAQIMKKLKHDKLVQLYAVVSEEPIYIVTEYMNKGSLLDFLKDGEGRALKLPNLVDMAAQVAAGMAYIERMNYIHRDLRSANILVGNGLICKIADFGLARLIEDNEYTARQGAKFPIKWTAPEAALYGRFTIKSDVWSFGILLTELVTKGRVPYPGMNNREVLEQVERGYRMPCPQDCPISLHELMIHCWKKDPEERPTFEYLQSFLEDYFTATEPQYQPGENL
quantity: phosphorylation enrichment

sequence_code="CGTPDYIAPEI [PRKCG_Y521]" quantity="phosphorylation enrichment" assay_value=0.53
sequence_code="ALKKPYSVLFK [RPF2_Y59_G60S_YF]" quantity="phosphorylation enrichment" assay_value=0.419
sequence_code="DEYLEYRRIVG [FAM221A_Y20]" quantity="phosphorylation enrichment" assay_value=1.03
sequence_code="PSNTEYPGPHS [TP63_Y171_D170E]" quantity="phosphorylation enrichment" assay_value=0.507
sequence_code="NLNGKYNKPRA [ANGPTL3_Y417]" quantity="phosphorylation enrichment" assay_value=0.659
sequence_code="DNEALYDTCFR [TUBB2B_Y208_I210T]" quantity="phosphorylation enrichment" assay_value=6.81
sequence_code="NPQKSYLIRLF [WAS_Y83_F84L_YF]" quantity="phosphorylation enrichment" assay_value=0.398
sequence_code="LTNDRYVATLT [IL6ST_Y396_L397V]" quantity="phosphorylation enrichment" assay_value=0.576
sequence_code="KKHFSYAWPFY [BRDT_Y291]" quantity="phosphorylation enrichment" assay_value=0.456
sequence_code="GGFTCYCDGKK [PROS1_Y266_YF]" quantity="phosphorylation enrichment" assay_value=0.485
sequence_code="RLFARYFQGDL [PDK3_Y337_YF]" quantity="phosphorylation enrichment" assay_value=0.499
sequence_code="EADRKYEEVAC [TPM3_Y163_R168C]" quantity="phosphorylation enrichment" assay_value=0.574
sequence_code="ERIEFYELNKK [PMM2_Y145_D148N]" quantity="phosphorylation enrichment" assay_value=0.497
sequence_code="LHSEAYLKYNE [PBRM1_Y1610_I1614N]" quantity="phosphorylation enrichment" assay_value=0.35
sequence_code="EKQVAYCPSGK [ROS1_Y2323]" quantity="phosphorylation enrichment" assay_value=0.383
sequence_code="KWKQKYEESQS [MYH6_Y1462_E1457K]" quantity="phosphorylation enrichment" assay_value=0.481
sequence_code="IHETTYNSIKK [ACTA1_Y281_M285K]" quantity="phosphorylation enrichment" assay_value=0.391
sequence_code="VVLGSYDRLRV [IFT172_Y260]" quantity="phosphorylation enrichment" assay_value=0.404
sequence_code="AIYRRYSKFFD [SH3PXD2B_Y45]" quantity="phosphorylation enrichment" assay_value=0.485
sequence_code="YGPPQYNMQYS [ERBB2IP_Y977_I979M]" quantity="phosphorylation enrichment" assay_value=0.547

====

biological target: Grb2 SH2 (UniProt P62993); experiment: SH2 binding enrichment of the phosphorylated peptide, bacterial display (enrichment ratio); higher = better substrate or ligand; peptides without Tyr show the background
Sequence (P62993 whole entry, looked up): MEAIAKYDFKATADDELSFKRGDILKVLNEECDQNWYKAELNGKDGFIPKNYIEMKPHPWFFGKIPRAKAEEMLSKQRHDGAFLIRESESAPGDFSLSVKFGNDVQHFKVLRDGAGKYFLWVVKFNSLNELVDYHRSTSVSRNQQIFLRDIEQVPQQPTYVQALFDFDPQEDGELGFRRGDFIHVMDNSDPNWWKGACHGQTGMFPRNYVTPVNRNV
SH2 binding enrichment values by entry
quantity: SH2 binding enrichment

sequence_code="VYAANYYKLLG [ROR2_Y645_D644N]" assay_value=0.699
sequence_code="FQQLFYLLQIN [IQGAP2_Y890_T894I_YF]" assay_value=1.14
sequence_code="PLQKTYNHNVL [SLC4A1_Y553_Y555H]" assay_value=0.908
sequence_code="LITSVYGCSRQ [TMPRSS6_Y290]" assay_value=0.863
sequence_code="GRDQPYSGAGD [TYRO3_Y828]" assay_value=0.894
sequence_code="HEHKGYNANFC [TGFB2_Y341_P338H]" assay_value=0.775
sequence_code="SAAAIYTVRHP [PMP22_Y117]" assay_value=0.9
sequence_code="GMTLSYLFREL [NDUFS8_Y74_P79L]" assay_value=1.64
sequence_code="VVTFSYKPAGN [RBL2_Y544_P547A]" assay_value=0.999
sequence_code="IVWDSYTTNKV [GNB3_Y85]" assay_value=0.966
sequence_code="GFRVFYTPDSR [PTPRF_Y451_YF]" assay_value=1.17
sequence_code="ERIEFYELDKK [PMM2_Y145]" assay_value=0.728
sequence_code="LRWREYQRQDY [PRKRIP1_Y90_R87W]" assay_value=1.46
sequence_code="SNPAYYVLEGV [INPPL1_Y987_N982S]" assay_value=0.891
sequence_code="IVAREYFSDAD [CAMK2A_Y106_E109D_YF]" assay_value=0.8
sequence_code="LSGVIYVILWK [PMP22_Y153_R157W]" assay_value=1.45
sequence_code="ADLLDYIKALN [HPRT1_Y81]" assay_value=0.786
sequence_code="KMKGEYYRYLA [YWHAG_Y130_D129E]" assay_value=1.65
sequence_code="GELQGYDIMEP [MSH2_Y863_S860L]" assay_value=0.851
sequence_code="GRTNIYNNKKD [SLC26A3_Y520_K521N]" assay_value=1.04
sequence_code="RKLVDYDSARH [BIN1_Y150]" assay_value=1.03

====

target: FGFR3 (UniProt P22607); test: phosphorylation enrichment, bacterial display (enrichment ratio); higher = better substrate or ligand; peptides without Tyr show the background
Sequence (P22607 whole entry, looked up): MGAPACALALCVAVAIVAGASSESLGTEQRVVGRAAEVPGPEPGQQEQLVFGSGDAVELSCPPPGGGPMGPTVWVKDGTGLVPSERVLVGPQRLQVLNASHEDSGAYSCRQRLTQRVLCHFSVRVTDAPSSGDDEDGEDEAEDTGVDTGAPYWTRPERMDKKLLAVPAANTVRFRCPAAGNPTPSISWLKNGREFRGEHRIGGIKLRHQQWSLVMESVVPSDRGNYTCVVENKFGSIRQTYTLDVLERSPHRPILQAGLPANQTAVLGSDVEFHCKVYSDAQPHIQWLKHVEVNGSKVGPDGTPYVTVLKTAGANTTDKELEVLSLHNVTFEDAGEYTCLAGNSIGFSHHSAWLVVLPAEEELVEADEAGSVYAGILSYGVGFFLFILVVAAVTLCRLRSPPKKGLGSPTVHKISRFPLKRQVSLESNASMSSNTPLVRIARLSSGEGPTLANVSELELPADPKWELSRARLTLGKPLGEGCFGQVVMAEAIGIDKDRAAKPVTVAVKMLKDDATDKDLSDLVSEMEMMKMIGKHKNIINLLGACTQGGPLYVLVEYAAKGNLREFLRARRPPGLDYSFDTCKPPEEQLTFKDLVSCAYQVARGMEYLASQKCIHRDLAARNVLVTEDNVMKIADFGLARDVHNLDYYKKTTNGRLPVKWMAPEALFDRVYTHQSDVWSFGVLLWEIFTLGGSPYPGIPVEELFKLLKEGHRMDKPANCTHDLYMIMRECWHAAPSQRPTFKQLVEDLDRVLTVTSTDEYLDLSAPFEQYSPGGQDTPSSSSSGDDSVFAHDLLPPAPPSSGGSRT
Parameter threshold = 0.8. Response is Fulfilled when phosphorylation enrichment meets or exceeds it, else Not fulfilled.

sequence_code="DLDTDYGSGFP [RNASEH2A_Y206_YF]" assay_target="FGFR3 (UniProt P22607)" answer_label="Not fulfilled"
sequence_code="AKKVFYVNETR [SHH_Y253_I255N]" assay_target="FGFR3 (UniProt P22607)" answer_label="Not fulfilled"
sequence_code="TQTPPYVKKHR [LARP1B_Y457_P462R]" assay_target="FGFR3 (UniProt P22607)" answer_label=Fulfilled
sequence_code="AACQHYGVRTC [NR4A2_Y275]" assay_target="FGFR3 (UniProt P22607)" answer_label="Not fulfilled"
sequence_code="LDYNEYVRDLN [HPRT1_Y198_F199V]" assay_target="FGFR3 (UniProt P22607)" answer_label=Fulfilled
sequence_code=TRTDAYAVSSF assay_target="FGFR3 (UniProt P22607)" answer_label="Not fulfilled"
sequence_code="RPSRWYQFPVA [ANOS1_Y259_R262P]" assay_target="FGFR3 (UniProt P22607)" answer_label=Fulfilled
sequence_code="FIGCIYLFLTK [GARS1_Y414_R412C_YF]" assay_target="FGFR3 (UniProt P22607)" answer_label="Not fulfilled"
sequence_code="FRAPGYREVVI [TNS2_Y673_YF]" assay_target="FGFR3 (UniProt P22607)" answer_label="Not fulfilled"
sequence_code="LRFKQYLRNPP [SHC1_Y315]" assay_target="FGFR3 (UniProt P22607)" answer_label="Not fulfilled"
sequence_code="VLVSQYEKLNA [AMZ2_Y26]" assay_target="FGFR3 (UniProt P22607)" answer_label="Not fulfilled"
sequence_code="SNSAAYSGSVA [PDLIM5_Y382_T381A]" assay_target="FGFR3 (UniProt P22607)" answer_label="Not fulfilled"
sequence_code="EQPNPYMVLDI [ROCK2_Y1197_S1194P]" assay_target="FGFR3 (UniProt P22607)" answer_label=Fulfilled
sequence_code="NFADPYRQLPF [CTNND2_Y503_Q507P_YF]" assay_target="FGFR3 (UniProt P22607)" answer_label="Not fulfilled"
sequence_code="EPSVPYRGTVF [GLI3_Y104]" assay_target="FGFR3 (UniProt P22607)" answer_label="Not fulfilled"
sequence_code="KPLMPSMRYSR [SMARCE1_Y73_Y73S]" assay_target="FGFR3 (UniProt P22607)" answer_label="Not fulfilled"
sequence_code="DLAGRYFALKS [CKB_Y173_YF]" assay_target="FGFR3 (UniProt P22607)" answer_label="Not fulfilled"
sequence_code="PRSRSYSSTSI [REPS2_Y462]" assay_target="FGFR3 (UniProt P22607)" answer_label="Not fulfilled"
sequence_code="FTRNFYVRAVL [CYBA_Y88_YF]" assay_target="FGFR3 (UniProt P22607)" answer_label=Fulfilled
sequence_code="QTLEAYIRWNK [SPAST_Y604]" assay_target="FGFR3 (UniProt P22607)" answer_label=Fulfilled
sequence_code="AIIGIYILRDD [CDH23_Y2949]" assay_target="FGFR3 (UniProt P22607)" answer_label="Not fulfilled"
sequence_code="RVSSVYTRSTG [CCR5_Y339_A335V]" assay_target="FGFR3 (UniProt P22607)" answer_label=Fulfilled
sequence_code="WRVISYHVVVW [ATP13A2_Y50_G49S]" assay_target="FGFR3 (UniProt P22607)" answer_label=Fulfilled
sequence_code="RHFTTYDTNGR [CLCA1_Y665_Y661H]" assay_target="FGFR3 (UniProt P22607)" answer_label="Not fulfilled"
sequence_code="VDLSKCITTIA [FAS_Y232_Y232C]" assay_target="FGFR3 (UniProt P22607)" answer_label="Not fulfilled"
sequence_code="RELSWYRGRRP [HESX1_Y106]" assay_target="FGFR3 (UniProt P22607)" answer_label="Not fulfilled"
sequence_code="QLCVSYPGGFT [PROS1_Y259_N258S_YF]" assay_target="FGFR3 (UniProt P22607)" answer_label=Fulfilled
sequence_code="IVAREYYSKAD [CAMK2B_Y107_E110K]" assay_target="FGFR3 (UniProt P22607)" answer_label="Not fulfilled"
sequence_code="HTVVSYAKVRA [CLOCK_Y378_E380K]" assay_target="FGFR3 (UniProt P22607)" answer_label=Fulfilled
sequence_code="EGLKVYINGTL [ADGRD1_Y183_V184I]" assay_target="FGFR3 (UniProt P22607)" answer_label=Fulfilled
sequence_code="LEGKEYRMSGE [KRT3_Y511_E509K]" assay_target="FGFR3 (UniProt P22607)" answer_label="Not fulfilled"
sequence_code="LALTVYADCLA [ABCA4_Y2063_G2059A]" assay_target="FGFR3 (UniProt P22607)" answer_label=Fulfilled
sequence_code="TFRPPYFHRNC [HGD_Y333_YF]" assay_target="FGFR3 (UniProt P22607)" answer_label="Not fulfilled"
sequence_code="PSNTEYPGPHS [TP63_Y171_D170E]" assay_target="FGFR3 (UniProt P22607)" answer_label="Not fulfilled"
sequence_code="GGGGSYNDFGN [HNRNPA1_Y312]" assay_target="FGFR3 (UniProt P22607)" answer_label="Not fulfilled"
sequence_code="GLAELYEFQKK [CKAP5_Y1854_K1857Q_YF]" assay_target="FGFR3 (UniProt P22607)" answer_label=Fulfilled
sequence_code="EEKKKYYDTKI [CASP5_Y103]" assay_target="FGFR3 (UniProt P22607)" answer_label="Not fulfilled"
sequence_code="EIRTQYEVMAS [GFAP_Y242_A244V]" assay_target="FGFR3 (UniProt P22607)" answer_label="Not fulfilled"
sequence_code="DMDATYRPMFS [JUP_Y701_YF]" assay_target="FGFR3 (UniProt P22607)" answer_label="Not fulfilled"
sequence_code="SGDVQYRSSVR [FREM2_Y2158_T2153S]" assay_target="FGFR3 (UniProt P22607)" answer_label="Not fulfilled"

Values compiled from the supplement of paper PMC10065799.
